Test system: SN12C renal
test.name: NCI-60 one-dose screen, 48 h (100 = growth as untreated, 0 = no growth, -100 = all killed)
condition.set: 10 µM
The panel holds about 83,000 compounds, 20% with a hit somewhere; the sample as a whole holds those more often.
Exercise: state measured growth for each of the molecules provided.
Form entry: value (%) — number only.

Just so you know, measured growth for C=CCNCCCN1C(=O)c2ccc3c4c(ccc(c24)C1=O)C(=O)N(CCCNCC=C)C3=O came out at -77.7

# growth (molecule: COc1ccc(-c2ccccc2)cc1C(=O)c1ccc(-c2ccccc2)cc1 ) is 96.6

// recorded growth for FC(F)(F)c1ccc(-c2ncc(-c3ccc(C(F)(F)F)cc3)c(NCc3cc(C(F)(F)F)cc(C(F)(F)F)c3)n2)cc1 : 34.2

Sure, the documented growth for Nc1c(C(=O)NC2CCCCC2)sc2nc3c(cc12)C(=O)CCC3 is 93.3

The molecule CCCOCC(O)CNCCN (stereo not given) showed growth equal to 92.8

---

Test system: NCI-H322M lung
test.name: NCI-60 one-dose screen, 48 h (100 = growth as untreated, 0 = no growth, -100 = all killed)
condition.set: 10 µM
About 83,000 compounds went through this panel and 20% of them were active in at least one assay; those are over-represented in the sample as a whole.
Dear colleague, classification is by growth, with ranges listed here: A (below 30%), B (30% to below 90%), C (90% or more)

Input line: # classify by growth band: Cc1nc(Nc2nc3ccccc3o2)nc(-c2cccc([N+](=O)[O-])c2)c1C(=O)Nc1ccc(F)c(Cl)c1
Output line: A

Input line: Which of the defined bands does the recorded growth of S=c1c2ncccc2c(-c2ccccn2)nn1Cc1ccccn1 sit within?
Output line: C

Input line: Would you mind sorting CCOC(=O)c1c(O)c2cc(-c3ccccc3)nc(OCC)c2c(=O)n1C into the appropriate category?
Output line: C

Input line: Category of CCOC(=O)Nc1ccc2c(c1)C(=O)N(CC)c1ccccc1O2 , please.
Output line: B

Input line: // bin(item) where item = COc1cc(-c2nc(-c3nnc(-c4cccnc4)o3)c3ccccn23)cc(OC)c1OC
Output line: C

Input line: # bin lookup: classify COc1cc(-c2nc3ccc(C)cc3[nH]2)ccc1OCC(=O)N=Nc1c(O)[nH]c2ccccc12 by its growth
Output line: A

Input line: Where would O=C(NNc1nc(N2CCCC2)nc(N2CCCC2)n1)c1ccccc1 land among the classes by reported growth?
Output line: C

Input line: Band for the recorded growth of N#CC1C=Cc2c(ccc3ccccc23)N1C(=O)c1ccccc1 (stereo unspecified) ?
Output line: A

Input line: // bin(item) where item = CC(=O)Nc1ccc2c(c1)C(N1CC3CCC(CC3)C1)c1ccccc1-2 (stereo unspecified)
Output line: C

Input line: # classify by growth band: COc1ccc(C(C)=O)cc1N1C(=O)C2C(C1=O)C1(c3ccccc3)C(=O)C2(c2ccccc2)C(c2ccc(C)cc2)=C1c1ccc(C)cc1 (stereo unspecified)
Output line: A

Input line: Category lookup for the compound COc1ccc(-c2nnc(SC/C(=N\O)c3ccccc3)o2)cc1
Output line: C

Input line: Category of COc1ccc(Nc2ccnc(N3CCN(c4ccnc5cc(Cl)ccc45)CC3)n2)cc1 :
Output line: A

Input line: Please indicate the class for COc1ccc(-c2ccccc2)cc1C(=O)c1ccc(-c2ccccc2)cc1 based on its growth.
Output line: B

Input line: # classify by growth band: Cn1c([N+](=O)[O-])cnc1C=C1C(=O)c2ccccc2C1=O
Output line: B

Input line: Returns: class label. Input: Cc1ccc(-n2c(-c3cc4c([nH]c5ccccc54)c(-c4cccc(O)c4)n3)n[nH]c2=S)cc1
Output line: A
